Every entry's value here was drawn from patent US20150064252A1.

# experimental_details: Pharmacokinetics of Compound I after single and multiple oral doses of solid dispersion tablets
# Assay type: in vivo, human
# test_context: human, in vivo, 450 mg, t1/2
measurement_name: half-life (h)
Value expressed in h; do not type the unit.

Return reported half-life; argument: COC[C@H]1C[C@@H](c2ncc(-c3ccc4c(c3)COc3cc5c(ccc6nc([C@@H]7CC[C@H](C)N7C(=O)[C@@H](NC(=O)OC)C(C)C)[nH]c65)cc3-4)[nH]2)N(C(=O)[C@H](NC(=O)OC)c2ccccc2)C1 [Compound I]
15

* * *

# experimental_details: Food effect on Compound I pharmacokinetics (fed vs fasted, light or high-fat breakfast)
# Assay type: in vivo, human
# test_context: human, plasma, oral, 100 mg, 100 mg fed, high-fat breakfast, N = 12; read-out: AUClast GLSM
measurement_name: AUC(0-t) (ng·h/mL)
Express your answer in ng·h/mL, writing the number without its unit.

Any idea what AUC(0-t) was measured for `COC[C@H]1C[C@@H](c2ncc(-c3ccc4c(c3)COc3cc5c(ccc6nc([C@@H]7CC[C@H](C)N7C(=O)[C@@H](NC(=O)OC)C(C)C)[nH]c65)cc3-4)[nH]2)N(C(=O)[C@H](NC(=O)OC)c2ccccc2)C1` ?
3220

* * *

# experimental_details: Pharmacokinetics of Compound I after single and multiple oral doses of solid dispersion tablets
# Type: in vivo, human
# test_context: human, in vivo, 5 mg, t1/2
# Protocol: The Compound I formulation is prepared as described above by combining Compound I amorphous free base in a 1:1 ratio by mass with copovidone, which is all dissolved in ethanol and spray dried to produce the Compound I solid dispersion. The Compound I solid dispersion is then mixed with various excipients in a dry granulation process to produce tablets that are film coated prior to packaging. 5 mg, 25 mg, 50 mg, and 100 mg tablet formulations were prepared according to Tables 1A and 1B).
measurement_name: half-life (h)
Your answer is read as h, so omit the unit and give the number.

Please report the recorded half-life for `COC[C@H]1C[C@@H](c2ncc(-c3ccc4c(c3)COc3cc5c(ccc6nc([C@@H]7CC[C@H](C)N7C(=O)[C@@H](NC(=O)OC)C(C)C)[nH]c65)cc3-4)[nH]2)N(C(=O)[C@H](NC(=O)OC)c2ccccc2)C1` .
11.2

* * *

# experimental_details: Pharmacokinetics of Compound I after single and multiple oral doses of solid dispersion tablets
# Type: in vivo, human
# test_context: human, in vivo, 5 mg, Cmax
measurement_name: Cmax (ng/mL)
Give the number; ng/mL is assumed, so skip it.

Please report the recorded Cmax for `COC[C@H]1C[C@@H](c2ncc(-c3ccc4c(c3)COc3cc5c(ccc6nc([C@@H]7CC[C@H](C)N7C(=O)[C@@H](NC(=O)OC)C(C)C)[nH]c65)cc3-4)[nH]2)N(C(=O)[C@H](NC(=O)OC)c2ccccc2)C1` .
22.4

* * *

# experimental_details: Food effect on Compound I pharmacokinetics (fed vs fasted, light or high-fat breakfast)
# Assay type: in vivo, human
# test_context: human, plasma, oral, 100 mg, 100 mg fed, light breakfast, N = 12
measurement_name: Cmax (ng/mL)
Reply with just the number (in ng/mL).

What measured Cmax goes with `COC[C@H]1C[C@@H](c2ncc(-c3ccc4c(c3)COc3cc5c(ccc6nc([C@@H]7CC[C@H](C)N7C(=O)[C@@H](NC(=O)OC)C(C)C)[nH]c65)cc3-4)[nH]2)N(C(=O)[C@H](NC(=O)OC)c2ccccc2)C1` ?
785
